Target: CSNK2A2 (Homo sapiens, UniProt P19784)
Sequence (P19784 whole entry): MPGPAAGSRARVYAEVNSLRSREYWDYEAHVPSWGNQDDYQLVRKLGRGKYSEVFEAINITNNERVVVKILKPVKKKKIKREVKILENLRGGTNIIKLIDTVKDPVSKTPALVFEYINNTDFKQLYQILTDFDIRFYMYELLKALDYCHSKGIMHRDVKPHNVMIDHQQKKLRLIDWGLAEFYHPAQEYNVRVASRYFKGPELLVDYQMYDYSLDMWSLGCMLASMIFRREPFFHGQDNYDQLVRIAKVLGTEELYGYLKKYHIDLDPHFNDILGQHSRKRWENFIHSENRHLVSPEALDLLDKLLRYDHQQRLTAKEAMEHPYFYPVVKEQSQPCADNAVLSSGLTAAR
property: pIC50
One number for each entry, as −log10 of the molar value.

# compound CCN1CCN(Cc2ccc(Nc3ncc(F)c(-c4cc(F)c5nc(C)n(C(C)C)c5c4)n3)nc2)CC1 ; its pIC50 = 7.44

====

Target: BRAF (Homo sapiens, UniProt P15056)
Sequence (P15056 2-766): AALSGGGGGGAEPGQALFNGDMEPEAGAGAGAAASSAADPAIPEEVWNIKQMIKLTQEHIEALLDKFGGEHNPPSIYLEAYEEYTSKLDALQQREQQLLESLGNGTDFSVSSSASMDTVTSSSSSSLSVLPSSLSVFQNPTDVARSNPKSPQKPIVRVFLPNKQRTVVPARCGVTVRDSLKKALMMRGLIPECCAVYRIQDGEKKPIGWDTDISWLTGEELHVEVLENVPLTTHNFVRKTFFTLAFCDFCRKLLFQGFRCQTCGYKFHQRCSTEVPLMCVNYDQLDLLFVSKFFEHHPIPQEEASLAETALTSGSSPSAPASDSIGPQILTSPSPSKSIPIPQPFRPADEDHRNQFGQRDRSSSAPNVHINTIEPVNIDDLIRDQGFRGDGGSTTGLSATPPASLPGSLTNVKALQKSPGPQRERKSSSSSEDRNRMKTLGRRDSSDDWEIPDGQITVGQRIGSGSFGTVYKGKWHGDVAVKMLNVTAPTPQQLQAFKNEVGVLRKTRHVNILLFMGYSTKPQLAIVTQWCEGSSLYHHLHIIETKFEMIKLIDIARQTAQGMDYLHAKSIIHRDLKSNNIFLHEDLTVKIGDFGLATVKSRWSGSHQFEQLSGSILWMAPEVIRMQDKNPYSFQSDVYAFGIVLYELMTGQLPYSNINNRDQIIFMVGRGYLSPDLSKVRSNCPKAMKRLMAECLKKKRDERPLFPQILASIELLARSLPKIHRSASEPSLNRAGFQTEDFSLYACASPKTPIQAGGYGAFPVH
property: IC50 (nM)
Numbers only, in nM.

# compound Cc1ccc(NC(=O)c2ccc(CN3CC[C@H](N(C)C)C3)c(C(F)(F)F)c2)cc1Nc1nccc(-c2cncnc2)n1 ; its IC50 = 41.6

====

Biological target: BRAF V600E (Homo sapiens, UniProt P15056, V600E)
Sequence (P15056 2-766 V600E): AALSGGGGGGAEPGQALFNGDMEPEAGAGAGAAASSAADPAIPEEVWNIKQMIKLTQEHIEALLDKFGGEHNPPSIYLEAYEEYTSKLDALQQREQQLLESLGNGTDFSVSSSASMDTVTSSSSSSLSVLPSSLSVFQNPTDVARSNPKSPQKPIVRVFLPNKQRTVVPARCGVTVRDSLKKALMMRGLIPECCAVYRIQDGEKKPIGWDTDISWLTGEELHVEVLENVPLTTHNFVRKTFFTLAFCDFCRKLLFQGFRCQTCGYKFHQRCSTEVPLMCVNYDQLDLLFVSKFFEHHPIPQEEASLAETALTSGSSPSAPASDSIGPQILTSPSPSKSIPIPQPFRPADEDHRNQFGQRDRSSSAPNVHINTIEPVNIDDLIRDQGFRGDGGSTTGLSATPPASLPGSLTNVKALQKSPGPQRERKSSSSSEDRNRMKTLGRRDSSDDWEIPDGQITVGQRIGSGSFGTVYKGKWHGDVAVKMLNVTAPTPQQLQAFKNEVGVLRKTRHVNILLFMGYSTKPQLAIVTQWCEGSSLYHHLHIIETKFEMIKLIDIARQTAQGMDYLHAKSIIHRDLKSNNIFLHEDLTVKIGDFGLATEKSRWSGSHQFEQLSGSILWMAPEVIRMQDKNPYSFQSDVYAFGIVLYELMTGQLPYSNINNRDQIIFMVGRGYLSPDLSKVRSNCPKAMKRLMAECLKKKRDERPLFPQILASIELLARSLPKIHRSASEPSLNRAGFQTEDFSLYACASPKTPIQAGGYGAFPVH
Assay: NanoBRET target engagement in HEK293 cells
property: IC50 (nM)
One number for each entry, in nM.

# compound Cc1ccc(NC(=O)c2ccc(CN3CC[C@H](N(C)C)C3)c(C(F)(F)F)c2)cc1Nc1nccc(-c2cncnc2)n1 ; its IC50 = 217
